target: pooled human IgG (human IgG1,2,3 and 4)
Collected Enzyme activity endpoint: scIgG values appear next to each entry.
Give a bare numeral; the unit ng/µL is implied.

Ask: Would you mind telling me what Enzyme activity endpoint: scIgG value was observed for PRT-652 (protein) MQITSVWTKGVTPLTPEQFRYNNEDVIHAPYLAHQGWYDITKAFDGKDNLLCGAATAGNMLHWWFDQNKTEIEAYLSKHPEKQKIIFNNQELFDLKAAIDTKDSQTNSQLFNYFRDKAFPNLSARQLGVMPDLVLDMFINGYYLNVFKTQSTDVNRPYQDKDKRGGIFDAVFTRGDQTTLLTARHDLKNKGLNDISTIIKQELTEGRALALSHGTANGGYSHVINLWGADFNAEGNLEAIYVTDSDANASIGMKKYFVGINAHGHVAISAKKIEGENKGAQVLGLFTLSSGKDIWQKLSLEHHHHHH ?
Reply: 12

Ask: Which Enzyme activity endpoint: scIgG value belongs to PRT-664 (protein) MQITSVWTKGVTPLTPEQFRYNNEDVIHAPYLPHQGWYDITKAFDGKDNLLCGAATAGNMLHWWFDQNKTEIEAYLSKHPEKQKIIFNNQELFDLRAAINTKDSQTNSALFNYFRDKAFPNLSARQLGVMPDLVLDMFINGYYLNVFKTQSTDVNRPYQDKDKRGGIFDAVFTRGDQTTLLTARHDLKNKGLNDISTLIKQELTEGKALALSHTYANVSISHVINLWGADFNAEGNLEAIYVTDSDSDASIGMKKYYVGINASGHVAISAKKIEGENIGAQVLGLFTLSSGKDIWQKLSLEHHHHHH ?
Reply: 0

Ask: Fill blank: measured Enzyme activity endpoint: scIgG of the protein PRT-638 (protein) MQITSVWTKGVTPLTPEQFRYNNEDVIHAPYLAHQGWYDITKLNDTGDGLLCGAATAGNMLHWWFDQNKTEIEAYLSKHPEKQKIIFNNQELFDLKAAIDTKDSQTNSQLFNYFRDKAFPNLSARQKGVMPDLVLDMFINGYYLNVFKTQSTDVNRPYQDKDKRGGIFDAVFTRGDQTTLLTARHDLKNKGLNDISTIIKQELTEGRALALSHTYANVSISHVINLWGADFNAEGNLEAIYVTDSNAGNGIGMKKYFVGINAHGHVAISAKKIEGENIGAQVLGLFTLSSGKDIWQKLSLEHHHHHH is ____.
Reply: 17

Further cases:
Ask: Given the protein PRT-616 (protein) MQITTVWTKGVTPLTPEQFRYNNEDVIHAPYLPHQGWYDITKAFDGKDNLLCGAATAGNMLHWWFDQNKTEIEAYLSKYPEKQKIIFNNQELFDLRAAINTKDSQTNSQLFNYFRDKAFPNLSARQLGVMPDLVLDMFINGYYLNVFKTQSTDVNRPYQDRDKRGGIFDAVFNRGDQTTLLTARHDLKNKGLNDISTIIKQELSSGRALALSHTYANVSISHVINLWGADFNAEGNLEAIYVTDSDANASIGMKKYYVGINAHGHVAISAKKIEGENIGAQVLGLFTLSSGKDIWQKLSLEHHHHHH , what is its reported Enzyme activity endpoint: scIgG?
Reply: 0
